Where do the numbers come from? From ChEMBL document CHEMBL3991601.

- TGT: Fibroblast growth factor receptor 1 (Homo sapiens)
- Sequence (P11362 whole entry): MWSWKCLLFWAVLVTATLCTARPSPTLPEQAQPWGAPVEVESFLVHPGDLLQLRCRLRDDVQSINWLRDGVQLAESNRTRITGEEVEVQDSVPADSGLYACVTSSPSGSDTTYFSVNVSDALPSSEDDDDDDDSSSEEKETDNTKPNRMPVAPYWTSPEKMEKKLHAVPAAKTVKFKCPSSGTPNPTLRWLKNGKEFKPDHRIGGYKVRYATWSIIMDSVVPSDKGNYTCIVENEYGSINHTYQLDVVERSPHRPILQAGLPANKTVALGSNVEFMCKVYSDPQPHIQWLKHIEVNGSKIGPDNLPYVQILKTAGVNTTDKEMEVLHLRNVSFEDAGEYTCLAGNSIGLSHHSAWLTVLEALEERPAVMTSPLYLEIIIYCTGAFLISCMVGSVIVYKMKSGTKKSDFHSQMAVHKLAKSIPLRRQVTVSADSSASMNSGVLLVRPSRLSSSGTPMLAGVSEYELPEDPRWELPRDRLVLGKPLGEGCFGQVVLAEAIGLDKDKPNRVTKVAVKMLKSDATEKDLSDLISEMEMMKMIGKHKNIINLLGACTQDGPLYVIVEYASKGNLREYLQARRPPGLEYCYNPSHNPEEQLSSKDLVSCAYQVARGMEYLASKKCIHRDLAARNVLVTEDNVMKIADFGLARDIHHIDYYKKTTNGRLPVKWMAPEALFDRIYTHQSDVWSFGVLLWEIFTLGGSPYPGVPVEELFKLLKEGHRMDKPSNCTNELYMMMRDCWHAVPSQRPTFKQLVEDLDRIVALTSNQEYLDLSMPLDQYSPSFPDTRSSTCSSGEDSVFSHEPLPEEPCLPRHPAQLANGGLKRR
Structures can show the parent of a compound that is named as a salt. Calls of active or inactive are those of the source.
Classes used: Y (active), N (inactive)

{"COMPOUND": "CO[C@H]1C[C@@H]2CC[C@@H](C)[C@@](O)(O2)C(=O)C(=O)N2CCCC[C@H]2C(=O)O[C@H]([C@H](C)C[C@@H]2CC[C@@H](OC(=O)C(C)(CO)CO)[C@H](OC)C2)CC(=O)[C@H](C)/C=C(\\C)[C@@H](O)[C@@H](OC)C(=O)[C@H](C)C[C@H](C)/C=C/C=C/C=C/1C", "CATEGORY": "N"}
{"COMPOUND": "C[C@H]1CNCCCN1S(=O)(=O)c1cccc2cncc(F)c12", "CATEGORY": "N"}
{"COMPOUND": "Cc1cc(Nc2ncnc3ccc(NC4=NC(C)(C)CO4)cc23)ccc1Oc1ccn2ncnc2c1", "CATEGORY": "N"}
{"COMPOUND": "Nc1ncnc2c1c(-c1cccc(OCc3ccccc3)c1)cn2[C@H]1C[C@@H](CN2CCC2)C1", "CATEGORY": "N"}
{"COMPOUND": "C[C@@H](Oc1cc(C(=O)Nc2ccc(C(=O)N3CCN(C)CC3)cc2)nnc1N)c1c(Cl)ccc(F)c1Cl", "CATEGORY": "N"}
{"COMPOUND": "FC(F)(F)c1ccc(/C=C/c2nc(COc3ccc(CCCCn4ccnn4)cc3)co2)cc1", "CATEGORY": "N"}
{"COMPOUND": "CCS(=O)(=O)N1CCN(c2ccc(Nc3ncc(C(N)=O)c(NC4CC4)n3)cc2)CC1 [Cerdulatinib Hydrochloride]", "CATEGORY": "N"}
{"COMPOUND": "COc1cc([C@@H]2c3cc4c(cc3[C@H](O)[C@H]3COC(=O)[C@@H]23)OCO4)cc(OC)c1OC", "CATEGORY": "N"}
{"COMPOUND": "CO[C@H]1C[C@@H]2CC[C@@H](C)[C@@](O)(O2)C(=O)C(=O)N2CCCC[C@H]2C(=O)O[C@H]([C@H](C)C[C@@H]2CC[C@@H](O)[C@H](OC)C2)CC(=O)[C@H](C)/C=C(\\C)[C@@H](O)[C@@H](OC)C(=O)[C@H](C)C[C@H](C)/C=C/C=C/C=C/1C", "CATEGORY": "N"}
{"COMPOUND": "CCCCCCCCCCCCCCCCCCOP(=O)([O-])OC1CC[N+](C)(C)CC1", "CATEGORY": "N"}
{"COMPOUND": "CCOc1cc2ncc(C#N)c(Nc3ccc(F)c(Cl)c3)c2cc1NC(=O)/C=C/CN(C)C", "CATEGORY": "N"}
{"COMPOUND": "O=C(Nc1cc(C(F)(F)F)cc(C(F)(F)F)c1)c1cc(Cl)ccc1O", "CATEGORY": "N"}
{"COMPOUND": "NC1(c2ccc(-c3nc4ccn5c(=O)[nH]nc5c4cc3-c3ccccc3)cc2)CCC1", "CATEGORY": "N"}
{"COMPOUND": "Cn1cnc2c(F)c(Nc3ccc(Br)cc3F)c(C(=O)NOCCO)cc21", "CATEGORY": "N"}
{"COMPOUND": "O=c1[nH]ccc2cc(OC3CCNCC3)ccc12 [SAR-407899 FREE BASE]", "CATEGORY": "N"}
{"COMPOUND": "COc1cc2c(Nc3ccc(Cl)c(Cl)c3F)ncnc2cc1OC[C@@H]1C[C@@H]2CN(C)C[C@@H]2C1", "CATEGORY": "N"}
{"COMPOUND": "CC(C)c1cc(CNc2nc(Nc3cc(C4CC4)[nH]n3)cc(N3CCN(C)CC3)n2)on1", "CATEGORY": "Y"}
{"COMPOUND": "CN1CCN(CCOc2cc(OC3CCOCC3)c3c(Nc4c(Cl)ccc5c4OCO5)ncnc3c2)CC1", "CATEGORY": "N"}
{"COMPOUND": "CO[C@H]1C[C@@H]2CC[C@@H](C)[C@@](O)(O2)C(=O)C(=O)N2CCCC[C@H]2C(=O)O[C@H]([C@H](C)C[C@@H]2CC[C@@H](OP(C)(C)=O)[C@H](OC)C2)CC(=O)[C@H](C)/C=C(\\C)[C@@H](O)[C@@H](OC)C(=O)[C@H](C)C[C@H](C)/C=C/C=C/C=C/1C", "CATEGORY": "N"}
{"COMPOUND": "COc1cc2ncnc(Oc3cccc(NC(=O)Nc4cc(C(C)(C)C(F)(F)F)on4)c3)c2cc1OC", "CATEGORY": "N"}
{"COMPOUND": "CCNC(=O)C#Cc1ccc2c(c1)NC(=O)/C2=C(\\Nc1ccc(CN(C)C)cc1)c1ccccc1", "CATEGORY": "Y"}
{"COMPOUND": "Cc1cc(C(=O)NOCCO)c(Nc2ccc(I)cc2F)n(C)c1=O", "CATEGORY": "N"}
{"COMPOUND": "CCS(=O)(=O)c1cccc(-c2cc(C(=O)NC3CCN(C)CC3)c(C)c3[nH]c4ncc(C)cc4c23)c1", "CATEGORY": "Y"}
{"COMPOUND": "Cc1cccc(-c2nn3c(c2-c2ccnc4ccc(C(N)=O)cc24)CCC3)n1", "CATEGORY": "N"}
{"COMPOUND": "COCc1c(-c2ccc(NC(=O)Nc3cc(C(F)(F)F)ccc3F)c(F)c2)c2c(N)ncnn2c1CN1CCOCC1", "CATEGORY": "Y"}
{"COMPOUND": "C[C@@H](NC(=O)c1ncnc(N)c1Cl)c1ncc(C(=O)Nc2cc(C(F)(F)F)c(Cl)cn2)s1", "CATEGORY": "N"}
{"COMPOUND": "CN(C[C@@H]1COCCO1)S(=O)(=O)Nc1ccc2ccc3ncc(-c4cnn(C)c4)cc3c(=O)c2c1", "CATEGORY": "N"}
{"COMPOUND": "CNC(=O)c1cccc2cc(Oc3ccnc4cc(OCC5(N)CC5)c(OC)cc34)ccc12", "CATEGORY": "N"}
{"COMPOUND": "Cn1cc(-c2cnn3c(N)c(Br)c([C@@H]4CCCNC4)nc23)cn1", "CATEGORY": "N"}
{"COMPOUND": "O=C(Cc1ccc(-c2ccc(OCCN3CCOCC3)cc2)cn1)NCc1ccccc1", "CATEGORY": "N"}
